Each recorded value in this set is attributed to patent US5079265A.

# MEASUREMENT NOTES: Effect of different auxiliaries on the solubility of HMLO active ingredient in water at 293° K
# Assay type: physicochemical
# RUN PARAMETERS: water, 293° K; auxiliary benzalkonium bromide 1.00%
PROPERTY MEASURED: solubility (µg/mL)

- COMPOUND: "CCCCCCCCCCCC(=NO)c1cc(C)ccc1O [HMLO, 2-hydroxy-5-methyllaurophenoxime]"
  PROPERTY MEASURED: "solubility"
  ASSAY RESULT: 24

----------
# MEASUREMENT NOTES: Effect of different auxiliaries on the solubility of HMLO active ingredient in water at 293° K
# Format: physicochemical
# RUN PARAMETERS: water, 293° K; auxiliary sodium desoxycholate 0.75%

- MOLECULE: "CCCCCCCCCCCC(=NO)c1cc(C)ccc1O [HMLO, 2-hydroxy-5-methyllaurophenoxime]"
  solubility: "2750 µg/mL"
